Cited source for all entries: patent US20210170033A1

# Tested on: A2780 Human Carcinoma Cells
# testDescription: Glucose displacement assay (ATP measurement, CellTiter-Glo)
# Format: cell-based
# runConditions: ATP measurement in A2780 cells, 0.5 μM rotenone, 10 mM glucose, read-out: IC50 [μM] at 10 mM glucose
The compounds listed here are annotated with their IC50.
Return type: number; implicit unit µM.

{"molecule": "CO[C@H]1O[C@H](CO)[C@@H](O)[C@H](O)[C@H]1OC(=O)c1cc(Cl)c(OCc2nc3ccccc3n2CCCc2cn(CCOCCOCC(=O)OC(C)(C)C)nn2)c(Cl)c1C", "IC50, µM": 0.7}

[in] Record request: IC50 value, item `C#CCCC(=O)Nc1cc(COc2c(Cl)cc(C(=O)O[C@H]3[C@@H](OC)O[C@H](CO)[C@@H](O)[C@@H]3O)c(C)c2Cl)ccc1OC`
[out] 1.79

[in] Record request: IC50 value, item `C#CCCCn1c(COc2c(Cl)cc(C(=O)O[C@H]3[C@@H](OC)O[C@H](CO)[C@@H](O)[C@@H]3O)c(C)c2Cl)nc2ccc(C)cc21`
[out] 0.94

----------
The compounds listed here are annotated with their IC50.
# System: A2780 Human Carcinoma Cells
# testDescription: Glucose displacement assay (ATP measurement, CellTiter-Glo)
# Format: cell-based
# runConditions: ATP measurement in A2780 cells, 0.5 μM rotenone, 10 mM glucose, read-out: IC50 [μM] at 10 mM glucose

{"molecule": "COc1cc(OCc2ccccc2)c(Cl)cc1C(=O)N[C@H]1[C@@H](OC)O[C@H](CO)[C@@H](O)[C@@H]1O", "IC50": "> 33 µM"}
{"molecule": "CO[C@H]1O[C@H](CO)[C@@H](O)[C@H](O)[C@H]1NC(=O)c1cc(Cl)c(OCc2ccc(OCC(=O)OC(C)(C)C)cc2)c(Cl)c1C", "IC50": "> 33 µM"}
{"molecule": "COc1cc(OCc2cccc(NC(=O)CCCC(=O)O)c2)c(Cl)cc1C(=O)O[C@H]1[C@@H](OC)O[C@H](CO)[C@@H](O)[C@@H]1O", "IC50": "> 33 µM"}

[in] Record request: IC50 value, item `COC(=O)/C=C/c1ccc(COc2c(Cl)cc(C(=O)N[C@H]3[C@@H](OC)O[C@H](CO)[C@@H](O)[C@@H]3O)c(C)c2Cl)cc1`
[out] > 33 µM

[in] Record request: IC50 value, item `C#CCCCn1cnc(COc2c(Cl)cc(C(=O)O[C@H]3[C@@H](OC)O[C@H](CO)[C@@H](O)[C@@H]3O)cc2OC)c1`
[out] > 100 µM
